FYI, the data here is from patent US20250237662A1.

# key: entry, value: S/B
STUDY_SYSTEM: humanized development candidate monoclonal antibody IgG4 (hIgG4)
ASSAY_INFO: Gyrolab, mAb as capture, hIgG4 1000 ng/ml, against the blank
MEASUREMENT_NAME: S/B

[[record]]
binder = "rabbit anti-human IgG monoclonal antibody clone 9E6 (antibody, V domains shown) VH: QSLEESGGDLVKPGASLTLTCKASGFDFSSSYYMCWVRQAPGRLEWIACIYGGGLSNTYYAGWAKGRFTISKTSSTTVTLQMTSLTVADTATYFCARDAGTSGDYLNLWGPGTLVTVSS VL: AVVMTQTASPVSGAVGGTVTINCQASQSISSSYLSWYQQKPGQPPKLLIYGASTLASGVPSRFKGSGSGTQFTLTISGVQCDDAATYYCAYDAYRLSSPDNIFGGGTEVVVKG"
measurement_name = "S/B"
result = 88.2

[[record]]
binder = "rabbit anti-human IgG monoclonal antibody clone 11G5 (antibody, V domains shown) VH: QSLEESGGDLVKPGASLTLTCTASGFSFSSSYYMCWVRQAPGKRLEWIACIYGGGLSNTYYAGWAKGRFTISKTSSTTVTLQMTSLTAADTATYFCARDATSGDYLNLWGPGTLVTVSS VL: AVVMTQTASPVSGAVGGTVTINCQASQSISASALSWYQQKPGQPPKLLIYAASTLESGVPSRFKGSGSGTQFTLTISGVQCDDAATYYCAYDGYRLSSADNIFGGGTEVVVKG"
measurement_name = "S/B"
result = 53.1

[[record]]
binder = "rabbit anti-human IgG monoclonal antibody clone 2C5 (antibody, V domains shown) VH: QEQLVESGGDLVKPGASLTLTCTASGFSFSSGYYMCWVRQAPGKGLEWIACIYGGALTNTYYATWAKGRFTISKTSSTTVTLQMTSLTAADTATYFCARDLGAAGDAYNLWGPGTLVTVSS VL: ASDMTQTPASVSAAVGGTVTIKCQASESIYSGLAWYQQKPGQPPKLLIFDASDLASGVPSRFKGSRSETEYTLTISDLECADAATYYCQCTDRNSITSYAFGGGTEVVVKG"
measurement_name = "S/B"
result = 110

[[record]]
binder = "rabbit anti-human IgG monoclonal antibody clone 16F5 (antibody, V domains shown) VH: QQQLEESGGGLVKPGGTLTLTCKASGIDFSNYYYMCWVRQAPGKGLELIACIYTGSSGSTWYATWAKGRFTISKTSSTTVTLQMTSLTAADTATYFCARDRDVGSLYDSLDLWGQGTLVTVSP VL: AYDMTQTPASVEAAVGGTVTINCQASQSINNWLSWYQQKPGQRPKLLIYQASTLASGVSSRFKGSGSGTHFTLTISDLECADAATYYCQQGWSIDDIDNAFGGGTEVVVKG"
measurement_name = "S/B"
result = 94.4

